Would you kindly list growth for each of these molecules?
Test system: UACC-257 melanoma
assay_method_text: NCI-60 one-dose screen, 48 h (100 = growth as untreated, 0 = no growth, -100 = all killed)
measurement_context: 10 µM unless noted
Compounds without any hit were thinned out: in the full panel of roughly 83,000, 20% have a hit.
One number for each entry, in %.

In the examples that follow, each entry is paired with its recorded growth.
{"columns": ["smiles_record", "growth / %"],
 "data": [
  ["Cc1nn(-c2cccc(Cl)c2)c(C)c1N=Nc1ccc(Br)cc1", 53.2],
  ["NC(=O)c1ccc[n+](Cc2ccccc2)c1", 95.3]
]}

Could you now look at the following molecule, please?
Prompt: Write down the reported growth of "c1cc(C2CCCCC2)ccc1-c1cnc2nonc2n1" , test system: UACC-257 melanoma.
Completion: 42.6

* * *

Tested on: K-562 leukemia
assay_method_text: NCI-60 one-dose screen, 48 h (100 = growth as untreated, 0 = no growth, -100 = all killed)
measurement_context: 10 µM unless noted
About 83,000 compounds went through this panel and 20% of them were active in at least one assay; those are over-represented in the sample as a whole.
growth strictly less than 20% = 1. Otherwise 0.

The following compounds have reported results that may help.
{"columns": ["compound", "assigned_category"],
 "data": [
  ["Nc1ncnc2c1N=C(c1ccc3c(c1)OCO3)CC(c1ccc(Cl)cc1)N2 (stereo not given)", 0],
  ["c1ccc(CCn2cccc2)nc1", 0],
  ["FC(F)(F)c1cc(-c2nnc3n2N=C(Cl)CS3)cc(C(F)(F)F)c1", 0],
  ["COc1ccc(/C(C)=N/NC(=O)CSc2nc3ccccc3c(=O)n2CCc2ccc(S(N)(=O)=O)cc2)cc1", 0]
]}

Prompt: growth under 20%? Item: CNC(=O)OC1C(O[C@H]2C[C@H]3[C@@H]4CC=C5C[C@@H](O)CC[C@]5(C)[C@H]4CC[C@]3(C)[C@H]2[C@H](C)C(=O)CCC(C)C)OCC(O)C1OC1OCC(O)C(O)C1OC(=O)c1ccc(OC)cc1 (stereo not given in full)
Completion: 1

Prompt: Please indicate whether the reported growth of "CCN(CC)c1ccc(/C=N/NC(=O)C[N+](C)(C)C)cc1" is strictly below 20%.
Completion: 0

Prompt: is_below(growth, 20%) for "CC1=C(/C=C/C(C)=C/C=C(C(=O)O)\C(C)=C\C(=O)O)C(C)(C)CCC1" ?
Completion: 0

Prompt: # TODO verify growth < 20% strictly for this compound: "C=C(C)[C@@H]1CC[C@]2(C(=O)O)CC[C@]3(C)[C@H](CC[C@@H]4[C@@]5(C)C[C@@H](CC#Cc6ccc(C(C)=O)s6)[C@H](O)C(C)(C)[C@@H]5CC[C@]43C)[C@@H]12"
Completion: 0

Prompt: Does the reported growth of the following compound sit strictly below 20%? "NC(N)=N/N=C/c1ccc(Cl)cc1"
Completion: 1

Prompt: Please check: growth for "CC(C)[C@@]12C[C@@H](OC(=O)[C@H]3CO3)[C@@](C)(O1)[C@@H]1CC[C@@H](C)[C@H]1[C@@H]2OC(=O)/C=C/c1ccccc1" , strictly under 20% or not?
Completion: 0

Prompt: In plain terms, does CCC1=CC2CN(C1)Cc1c([nH]c3ccccc13)[C@@](C(=O)OC)(c1cc3c(cc1OC)N(C)[C@H]1[C@@](O)(C(=O)OC)[C@H](OC(C)=O)[C@]4(CC)C=CCN5CC[C@]31[C@@H]54)C2 (stereo not given in full) come in under 20% for growth?
Completion: 1

Prompt: Confirm or reject: growth of CCSCC1CC(O)(c2ccccc2)C(c2ccccc2)C(c2ccc(F)cc2)O1 (stereo not given) lies strictly below 20%
Completion: 1

Prompt: API: query returns whether the compound falls strictly under 20% in growth. Query: "CCS(=O)(=O)Nc1cccc(Nc2c3cccc(C)c3nc3c(C)cccc23)c1OC"
Completion: 1

* * *

Test system: HCT-15 colon
assay_method_text: NCI-60 one-dose screen, 48 h (100 = growth as untreated, 0 = no growth, -100 = all killed)
measurement_context: 10 µM unless noted
Compounds without any hit were thinned out: in the full panel of roughly 83,000, 20% have a hit.
Could you please report measured growth for the items listed next?
Answers are plain numbers, in %.

Example cases with answers are listed next.
{"columns": ["compound", "recorded_metric", "numeric_value"],
 "data": [
  ["COCc1nc(NS(=O)(=O)c2ccc(N)cc2)nc(C)c1Br", "growth", 97.7],
  ["CC(=O)CC(c1ccc([N+](=O)[O-])cc1)c1c(O)c2ccccc2oc1=O (stereo not drawn)", "growth", 110],
  ["c1cc(C2CCCCC2)ccc1-c1cnc2nonc2n1", "growth", 9.57],
  ["FC(F)(F)c1cc(-c2nnc3n2N=C(Cl)CS3)cc(C(F)(F)F)c1", "growth", 96.8]
]}

Give growth for each of the items listed below.
1. C=CCOC(=O)C1=C(C)NC2=C(C(=O)CCC2)C1c1ccc(F)cc1 (stereo not drawn)
2. CCCCCCCCCCCC1=NC(C)(C)CN1CCO
3. NS(=O)(=O)c1ccc(CCn2c(SCC(=O)N/N=C/c3cc4ccccc4[nH]3)nc3ccccc3c2=O)cc1
4. COc1ccc(/C(C)=N/NC(=O)CSc2nc3ccccc3c(=O)n2CCc2ccc(S(N)(=O)=O)cc2)cc1
5. CN(C)CCCn1c(=O)c2cc([N+](=O)[O-])ccc2c2cnc3[nH]ccc3c21

Completion:
105
18
91.4
65.3
48

Dear colleague, could you send me growth for each of the items below? Thanks.
1. CN(C)CCCN1c2ccccc2CCc2ccccc21
2. COc1cnc2c(c1)C(=O)c1c-2n(CCCN2CCN(C)CC2)c(=O)c2cc(Cl)ccc12

Completion:
96.6
41.8

I need growth for every entry listed below, if you could help.
1. O=S(=O)(Cc1ccc(Cl)cc1Cl)c1ccc(Cl)cc1
2. COc1cnc2c(c1)C(=O)c1c-2n(CCCN2CCNCC2)c(=O)c2cc(Cl)ccc12

Completion:
1: 31.8; 2: -89.4

* * *

Tested on: MDA-MB-435 melanoma
assay_method_text: NCI-60 one-dose screen, 48 h
measurement_context: 10 µM unless noted
About 83,000 compounds went through this panel and 20% of them were active in at least one assay; those are over-represented in the sample as a whole. Active and inactive are the calls of the source. The calls were made as follows: active = growth percent below 10; inactive = the rest.
Classes to choose from: YES (active), NO (inactive)

Completed entries (count: 4):
{"columns": ["compound", "assigned_category"],
 "data": [
  ["CN(C)CCCn1c(=O)c2cc([N+](=O)[O-])ccc2c2cnc3[nH]ccc3c21", "NO"],
  ["Cc1nn(-c2ccccc2)c2nc3c(nc12)C1=NCCN1C(c1ccc(Cl)cc1)N3 (stereo not given)", "NO"],
  ["COc1ncnc2[nH]cc(CN3CCN(c4ccc(F)cc4)CC3)c12", "NO"],
  ["CCOC(=O)c1ccc2c(c1)nc(-c1ccc(Cl)cc1)n2-c1cc(C(C)(C)C)[nH]n1", "YES"]
]}

Now for a further compound.
Prompt: Hi, sorry to bother you, what did the test record for "O=C(NO)c1ccc(CNc2cccc3nc(C4CC4)n(-c4ccccc4)c(=O)c23)cc1" ?
Completion: NO

* * *

System: BT-549 breast
assay_method_text: NCI-60 one-dose screen, 48 h (100 = growth as untreated, 0 = no growth, -100 = all killed)
measurement_context: 10 µM unless noted
Compounds without any hit were thinned out: in the full panel of roughly 83,000, 20% have a hit.
recorded_metric: growth (%)
Answers are plain numbers, in %.

Here are 5 molecules together with their reported answers.
{"columns": ["molecule", "measured_on", "recorded_metric", "numeric_value"],
 "data": [
  ["CC1CCN(CCCCCOc2ccc3oc4ccc(Cl)cc4c(=O)c3c2)CC1", "BT-549 breast", "growth", 76.2],
  ["Cn1cnc([N+](=O)[O-])c1S(=O)(=O)Oc1cccc2ccccc12", "BT-549 breast", "growth", 99.9],
  ["c1ccc(-c2ccc(-c3ccccc3)[nH]2)cc1", "BT-549 breast", "growth", 99.8],
  ["O=C1OCC2=C1C(c1ccccc1)c1cc3c(cc1N2CCO)CCC3 (centres undefined)", "BT-549 breast", "growth", -1.32],
  ["COc1ccc(-c2cnnn2-c2nonc2-n2cccc2)cc1", "BT-549 breast", "growth", 47.6]
]}

Dear reader, for each entry below, please note its growth.
1. COc1ccc2nc(C)cc(Sc3nc4ccccc4s3)c2c1
2. O=C(/C=C/c1cn(-c2ccccc2)nc1-c1ccccc1)OCc1cn(-c2cccc([N+](=O)[O-])c2)nn1
3. CCN(CC)CC(=O)Nc1c(C)ccc(N)c1C
4. CC(C)(C)c1cc(C[P+](c2ccccc2)(c2ccccc2)c2ccccc2)cc(C(C)(C)C)c1O
5. CCCCCCCCCCCC1=NC(C)(C)CN1CC(C)O (centres undefined)
6. COc1ccc(/C=C/c2nc(NCCCN(C)C)c3ccccc3n2)cc1
7. O=C1C=CN2C(=O)CC=CC2[C@@H]1O (some centres undefined)
8. CCOC(=O)C(CCCCC(NC(C)=O)(C(=O)OCC)C(=O)OCC)(NC(C)=O)C(=O)OCC

Completion:
[-11.8, 94.7, 97.2, -0.875, 67.8, 47.3, 102, 107]

Below are some molecules; for each one, tell me its growth.
1. CC(=O)c1ccc(Br)c([N+](=O)[O-])c1
2. COC(=O)CSc1ccc(Cl)cc1
3. C[Si](C)(C)C(c1ccccc1)c1ccccc1
4. Cc1cccc(N=NC(=S)NNc2cccc(C)c2)c1

Completion:
99.7
105
108
134
